Assay: Pharmacokinetics of PUR in rat plasma after single oral administration, UHPLC-MS/MS
Type: in vivo, male Wistar rats
Settings: male, Wistar; PUR in rat plasma; oral PUR 100 mg/kg; n = 6, mean ± SD
Recorded metric: AUC(0-inf) (ng·h/mL)
Quick reminder: number only, in ng·h/mL, skip the unit.

Query: Using the record for O=c1c(-c2ccc(O)cc2)coc2c([C@@H]3O[C@H](CO)[C@@H](O)[C@H](O)[C@H]3O)c(O)ccc12 [PUR, daidzein-8-C-glucoside] , state its measured AUC(0-inf).
Result: 220

====

Test: Pharmacokinetics of PUR in rat plasma after single oral administration, UHPLC-MS/MS
Type: in vivo, male Wistar rats
Conditions: male, Wistar; rat plasma; oral puerarin 100 mg/kg; abstract; read-out: maximum concentration (Cmax) of puerarin
Recorded metric: Cmax (ng/mL)
Quick reminder: number only, in ng/mL, skip the unit.

Query: Using the record for O=c1c(-c2ccc(O)cc2)coc2c([C@@H]3O[C@H](CO)[C@@H](O)[C@H](O)[C@H]3O)c(O)ccc12 [PUR, daidzein-8-C-glucoside] , state its measured Cmax.
Result: 102
